# Test system: BT-549 breast
# measurement_notes: NCI tumour cell line growth inhibition, 48 h
reported_endpoint: TGI

>>> recorded_measurement("CCN1C(=O)N(c2ccccc2)C2NC(=S)N(/N=C/C=C/c3ccccc3)C21 (stereo not drawn)")
"> 24.7 µM"
>>> recorded_measurement("COc1c(Br)cc(/C=C(\\C#N)c2cccnc2)cc1Br")
"> 100 µM"
>>> recorded_measurement("CC1=C(C)C1[N+](=O)[O-]")
"> 100 µM"
>>> recorded_measurement("Cc1ccc(C)n1-c1ccccc1C1C=CN(C(=O)OC(C)(C)C)C=C1")
"> 100 µM"
>>> recorded_measurement("S=C1CSc2c(ccc3ccccc23)N1")
"> 100 µM"
>>> recorded_measurement("Oc1ccccc1C=Nc1nc(SCc2ccccc2)nc2[nH]ncc12")
"> 100 µM"
>>> recorded_measurement("FC(F)(F)c1ccc(C#Cc2ccccc2C#Cc2ccccc2)cc1")
"> 100 µM"
>>> recorded_measurement("Cc1cc2nc(N3C(=O)/C(=C/c4ccccc4S)N=C3c3ccccc3)sc2cc1C")
"> 100 µM"
>>> recorded_measurement("COC(=O)CCC1CCC(c2cc(F)ccc2F)(S(=O)(=O)c2ccc(Cl)cc2)CC1 (stereo not drawn)")
"> 100 µM"
>>> recorded_measurement("COc1cccc(-c2nc3ccccc3c(=O)[nH]2)c1OC")
"> 100 µM"
>>> recorded_measurement("COC(=O)C1=C(C(=O)OC)SC(=C(Cl)C(=S)Nc2ccccc2O)S1")
"35.5 µM"
>>> recorded_measurement("CCC[CH2][Sn]([CH2]CCC)([CH2]CCC)[O]C(=O)c1ccc(Cl)cc1Cl")
"0.251 µM"
>>> recorded_measurement("CC(C)(C)C(=O)CP(=O)(O)O")
"> 100 µM"
>>> recorded_measurement("N#Cc1cc(-c2nc3c(F)cccc3s2)ccc1N")
"> 100 µM"
>>> recorded_measurement("CN(N)/N=N/c1nc[nH]c1[N+](=O)[O-]")
"> 100 µM"
>>> recorded_measurement("C=C1C(=O)O[C@H]2[C@H](OC(C)=O)[C@@H](C)CCC/C(C)=C/CC[C@@]3(C)O[C@@H]3C[C@@H]12")
"8.76 µM"
>>> recorded_measurement("CC[C@@]1(OC(=O)CN)C(=O)OCc2c1cc1n(c2=O)Cc2cc3c(N)cccc3nc2-1")
"1.63 µM"
>>> recorded_measurement("COc1cc2c(cc1OCCCCCOc1ccc(-n3c(C)nc4ccccc4c3=O)cc1)N=C[C@@H]1CCCN1C2=O")
"0.34 µM"
>>> recorded_measurement("Oc1ccccc1CNCC12CC3CC(CC(C3)C1)C2")
"74.8 µM"
>>> recorded_measurement("COc1ccccc1N1CCN(CCc2c[nH]c3cc4c(cc23)OCO4)CC1")
"> 100 µM"
>>> recorded_measurement("O=S(=O)(c1cccc2c(Cl)cccc12)N1CCCNCC1")
"36.4 µM"
>>> recorded_measurement("COc1ccc(N2C(=O)C(C)SC2c2cc3cc(Br)ccc3nc2Cl)cc1 (stereo not drawn)")
"99.7 µM"
>>> recorded_measurement("COc1cc([C@H]2CC(=O)C[C@H](c3cc(OC)c(OC)c(OC)c3)C23C(=O)c2ccccc2C3=O)cc(OC)c1OC")
"> 100 µM"
>>> recorded_measurement("Cc1ccc(/C=C2\\CN(C)CC3C2=NN(c2ccccc2)C3c2ccc(C)cc2)cc1 (stereo not drawn)")
"> 100 µM"
>>> recorded_measurement("COc1ccc(-n2cc(-c3cc(OC)c(OC)c(OC)c3)nc2SCc2ccccc2)cc1OC")
"> 100 µM"
>>> recorded_measurement("Cc1cc(NCc2cc(Nc3ccnc4cc(Cl)ccc34)ccc2F)nc(N2CCN(C)CC2)n1")
"3.65 µM"
>>> recorded_measurement("C[N+]1(Cc2ccc(Cl)c(Cl)c2)CCCC1C1CCCN(Cc2ccc(Cl)c(Cl)c2)C1 (stereo not drawn)")
"> 100 µM"
>>> recorded_measurement("Cn1c(Cl)cn2c3nc4ccccc4nc3c(=O)c(C#N)c12")
"> 100 µM"

Origin of measurements: PubChem BioAssay (NCI)
